FYI, the data here is from patent US20200095340A1.

- tested-target: biotinylated human DLL3 protein expressed as a human IgG1 fusion protein (human) (UniProt Q9NYJ7)
- Sequence (Q9NYJ7 27-492): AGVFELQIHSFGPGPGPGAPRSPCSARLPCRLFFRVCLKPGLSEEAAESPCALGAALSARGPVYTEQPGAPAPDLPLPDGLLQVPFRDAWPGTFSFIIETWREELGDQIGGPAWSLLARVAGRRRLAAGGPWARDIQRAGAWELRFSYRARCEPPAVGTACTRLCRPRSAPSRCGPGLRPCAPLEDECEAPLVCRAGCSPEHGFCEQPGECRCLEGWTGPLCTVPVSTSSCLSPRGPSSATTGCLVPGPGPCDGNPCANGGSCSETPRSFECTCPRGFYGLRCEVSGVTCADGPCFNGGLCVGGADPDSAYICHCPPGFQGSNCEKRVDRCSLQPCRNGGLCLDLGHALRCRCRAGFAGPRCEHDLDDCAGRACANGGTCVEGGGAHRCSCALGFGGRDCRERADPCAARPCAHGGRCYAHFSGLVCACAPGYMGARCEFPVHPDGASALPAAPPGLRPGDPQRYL
- protocol-description: Octet, biotinylated human DLL3-IgG1 fusion on streptavidin tips, single 50 nM, conditioned medium (relative KD)
test-readout: pKd
FYI, pKd means -log10 of a concentration in mol per litre.

Below: 3 binders and their reported pKd.
anti-DLL3 trispecific protein, DLL3 binder 1B04 (protein, part only; not given: CD3 fragment and albumin sdAb, part only) chain, part: EVQLVESGGGLVQPGGSLTLSCVASGTTSSINAMGWYRRAPGKQRELVAGISSDGSLVYADSVKGRFTISRDNAKNSVYLQMNSLRAEDTAVYYCYYFRIVRGSSMRYWGQGTLVTVSSGGGGSGGGSGGGGSGGGSHHHHHH :: 7.96
anti-DLL3 trispecific protein, DLL3 binder 3A03 (protein, part only; not given: CD3 fragment and albumin sdAb, part only) chain, part: EVQLVESGGGLVQPGGSLTLSCAASGSRVSFLSMAWYRQAPGKKRELVAGISRDGSTDYIDSVKGRFTISRDNAKNSVYLQMNSLRAEDTAVYYCYAYRWTTRRTYWGQGTLVTVSSGGGGSGGGSGGGGSGGGSHHHHHH :: 7.92
anti-DLL3 trispecific protein, DLL3 binder 3G011 (protein, part only; not given: anti-CD3 fragment and anti-albumin sdAb, part only) chain, part: EVQLVESGGGLVQPGGSLTLSCAASGSRVSFLSMAWYRQAPGKKRELVAGISADGSTGYIDSVKGRFTISRDNAKNSVYLQMNSLRAEDTAVYYCYAYRWATRYTYWGQGTLVTVSSGGGGSGGGSGGGGSGGGSHHHHHH :: 7.77

So what's the measured pKd for this one? anti-DLL3 trispecific protein, DLL3 binder 4H05 (protein, part only; not given: anti-CD3 fragment and anti-albumin sdAb, part only) chain, part: EVQLVESGGGLVQPGGSLTLSCAASGSSVSRLSMAWYRQAPGKKRELVAGISARGSTDYIDSVKGRFTISRDNAKNSVYLQMNSLRAEDTAVYYCYAYRWTTRSTYWGQGTLVTVSSGGGGSGGGSGGGGSGGGSHHHHHH
7.19

So what's the measured pKd for this one? anti-DLL3 trispecific protein, DLL3 binder 1G04 (protein, part only; not given: anti-CD3 fragment and anti-albumin sdAb, part only) chain, part: EVQLVESGGGLVQPGGSLTLSCVASGSTSSTNAMGWYRRAPGKQRELVAGISSDGSKVLADSVKGRFTISRDNAKNSVYLQMNSLRAEDTAVYYCYYFRTVNLSSMRYWGQGTLVTVSSGGGGSGGGSGGGGSGGGSHHHHHH
7.96

So what's the measured pKd for this one? anti-DLL3 trispecific protein, DLL3 binder 3B010 (protein, part only; not given: anti-CD3 and anti-albumin domains, part only) chain, part: EVQLVESGGGLVQPGGSLTLSCAASGSSVSFLSMAWYRQAPGKKRELVAGISRDGSTDYIDSVKGRFTISRDNAKNSVYLQMNSLRAEDTAVYYCYAYRWVTRYTYWGQGTLVTVSSGGGGSGGGSGGGGSGGGSHHHHHH
7.92

So what's the measured pKd for this one? anti-DLL3 trispecific protein, DLL3 binder 2G04 (protein, part only; not given: anti-CD3 fragment and anti-albumin sdAb, part only) chain, part: EVQLVESGGGLVQPGGSLTLSCVASGSTSSINAMGWYRRAPGKQRELVAGISSDGSLVYADSVKGRFTISRDNAKNSVYLQMNSLRAEDTAVYYCYYFRILSGSSMRYWGQGTLVTVSSGGGGSGGGSGGGGSGGGSHHHHHH
7.96
